Quick record: IC50, Mitochondrial peptide methionine sulfoxide reductase (Bos taurus, UniProt P54149).
quantity: IC50

[[record]]
compound = "O=C(O)c1cccc(NS(=O)(=O)c2ccc3c(c2)C(=O)c2ccccc2C3=O)c1"
target_or_system = "Mitochondrial peptide methionine sulfoxide reductase (Bos taurus, UniProt P54149)"
quantity = "IC50"
recorded_value = "> 155 µM"

[[record]]
compound = "Cc1cc(OC(C)C)c2c(-c3ccccc3)cc(=O)oc2c1"
target_or_system = "Mitochondrial peptide methionine sulfoxide reductase (Bos taurus, UniProt P54149)"
quantity = "IC50"
recorded_value = "> 155 µM"

[[record]]
compound = "Cc1cc([N+](=O)[O-])ccc1Nc1nc2ccccc2n2cnnc12"
target_or_system = "Mitochondrial peptide methionine sulfoxide reductase (Bos taurus, UniProt P54149)"
quantity = "IC50"
recorded_value = "> 155 µM"

[[record]]
compound = "c1ccc2c(c1)nc(-c1ccncc1)n1nnnc21"
target_or_system = "Mitochondrial peptide methionine sulfoxide reductase (Bos taurus, UniProt P54149)"
quantity = "IC50"
recorded_value = "> 155 µM"

[[record]]
compound = "CCOc1cc(S(=O)(=O)NC2CC2)c(OCC)cc1-n1cnnn1"
target_or_system = "Mitochondrial peptide methionine sulfoxide reductase (Bos taurus, UniProt P54149)"
quantity = "IC50"
recorded_value = "> 155 µM"

[[record]]
compound = "Cc1nn(Cc2ccc(Cl)cc2)c(=O)n1N(C)c1ncc(C(F)(F)F)cc1Cl"
target_or_system = "Mitochondrial peptide methionine sulfoxide reductase (Bos taurus, UniProt P54149)"
quantity = "IC50"
recorded_value = "> 155 µM"

[[record]]
compound = "C#Cc1cccc(Nc2nc(NCc3ccccc3OC)nc3ccsc23)c1"
target_or_system = "Mitochondrial peptide methionine sulfoxide reductase (Bos taurus, UniProt P54149)"
quantity = "IC50"
recorded_value = "> 155 µM"

[[record]]
compound = "Cc1ccccc1-c1nc(C#N)c(N2CCCCC2)o1"
target_or_system = "Mitochondrial peptide methionine sulfoxide reductase (Bos taurus, UniProt P54149)"
quantity = "IC50"
recorded_value = "> 155 µM"

[[record]]
compound = "FC(F)(F)c1ccc(/N=C/c2sc(N3CCOCC3)nc2-c2ccccc2)cc1"
target_or_system = "Mitochondrial peptide methionine sulfoxide reductase (Bos taurus, UniProt P54149)"
quantity = "IC50"
recorded_value = "> 155 µM"

[[record]]
compound = "Cc1ccc(C)n1-n1c(C)nc2scc(-c3cccs3)c2c1=O"
target_or_system = "Mitochondrial peptide methionine sulfoxide reductase (Bos taurus, UniProt P54149)"
quantity = "IC50"
recorded_value = "> 155 µM"

[[record]]
compound = "Cc1ccc(Nc2ccc(C(F)(F)F)cc2[N+](=O)[O-])cc1"
target_or_system = "Mitochondrial peptide methionine sulfoxide reductase (Bos taurus, UniProt P54149)"
quantity = "IC50"
recorded_value = "> 155 µM"

[[record]]
compound = "COC(=O)N1[C@H](C)C=C[C@]1(Cc1ccccc1)C(=O)NCCCNc1ncc(C(F)(F)F)cc1Cl"
target_or_system = "Mitochondrial peptide methionine sulfoxide reductase (Bos taurus, UniProt P54149)"
quantity = "IC50"
recorded_value = "> 155 µM"

[[record]]
compound = "CCOP(=O)(CCP(=O)(OCC)OCC)OCC"
target_or_system = "Mitochondrial peptide methionine sulfoxide reductase (Bos taurus, UniProt P54149)"
quantity = "IC50"
recorded_value = "11 µM"

[[record]]
compound = "Cc1nc2scc(-c3cccs3)c2c(=O)n1-n1cccc1"
target_or_system = "Mitochondrial peptide methionine sulfoxide reductase (Bos taurus, UniProt P54149)"
quantity = "IC50"
recorded_value = "> 155 µM"

[[record]]
compound = "Cc1ccc(C)c(NC(=O)/C(C#N)=C/c2ccc[nH]2)c1"
target_or_system = "Mitochondrial peptide methionine sulfoxide reductase (Bos taurus, UniProt P54149)"
quantity = "IC50"
recorded_value = "> 155 µM"

[[record]]
compound = "N#CC(C=Nc1ccccc1O)c1nc2ccccc2o1 (stereo unspecified)"
target_or_system = "Mitochondrial peptide methionine sulfoxide reductase (Bos taurus, UniProt P54149)"
quantity = "IC50"
recorded_value = "> 155 µM"

[[record]]
compound = "CCCCCc1c(-c2cccc(OC)c2)ncn1CCc1ccccc1OC"
target_or_system = "Mitochondrial peptide methionine sulfoxide reductase (Bos taurus, UniProt P54149)"
quantity = "IC50"
recorded_value = "> 155 µM"

[[record]]
compound = "Cc1ccc(S(=O)(=O)NCCNc2ccc([N+](=O)[O-])cc2C(F)(F)F)cc1"
target_or_system = "Mitochondrial peptide methionine sulfoxide reductase (Bos taurus, UniProt P54149)"
quantity = "IC50"
recorded_value = "> 155 µM"

[[record]]
compound = "CC(=N)C(C#N)C(=O)CSc1nn(-c2ccc(Cl)cc2)c(=S)s1 (stereo unspecified)"
target_or_system = "Mitochondrial peptide methionine sulfoxide reductase (Bos taurus, UniProt P54149)"
quantity = "IC50"
recorded_value = "> 155 µM"

[[record]]
compound = "N#CC1C(=N)Oc2c(O)cc3ccccc3c2C1c1ccsc1 (stereo unspecified)"
target_or_system = "Mitochondrial peptide methionine sulfoxide reductase (Bos taurus, UniProt P54149)"
quantity = "IC50"
recorded_value = "> 155 µM"

[[record]]
compound = "Cc1cc(OCC(=O)N2CCc3ccccc3C2)c2c(-c3ccccc3)cc(=O)oc2c1"
target_or_system = "Mitochondrial peptide methionine sulfoxide reductase (Bos taurus, UniProt P54149)"
quantity = "IC50"
recorded_value = "> 155 µM"

